Test system: Plasmodium berghei
Test protocol: Antimalarial activity in Plasmodium berghei infected mice (Mus musculus) after 80 mg/kg subcutaneous dose
Type: functional
Overview of reported Delta mean survival time across a group of molecules:
Kindly provide the number alone.

Answered examples (5):
Molecule	Delta mean survival time
CC1C(=O)c2c(nc3ccc(Cl)cc3c2O)CC1c1ccc(Cl)c(C(F)(F)F)c1 (configuration not stated)	1.1
CC(C/N=C1\CC(c2cccc(C(F)(F)F)c2)Cc2c1c(=O)c1cc(Cl)ccc1n2O)N(C)C (configuration not stated)	9.2
CC(C)CN(CC/N=C1\CC(c2ccc(Cl)c(Cl)c2)Cc2c1c(=O)c1cc(Cl)ccc1n2O)CC(C)C (configuration not stated)	6.3
O=c1c2c(n(O)c3ccc(Cl)cc13)CC(c1cccc(C(F)(F)F)c1)C/C2=N\CCN1CCCC1 (configuration not stated)	8
CCC1/C(=N\CCCN(C)C)c2c(nc3ccc(Cl)cc3c2O)CC1c1ccc(C(F)(F)F)cc1 (configuration not stated)	5.3

Inquiry: State the recorded Delta mean survival time for this entry: CC1C(=O)c2c(n(O)c3ccc(Cl)cc3c2=O)CC1c1ccc(C(F)(F)F)cc1 (configuration not stated)
Reply text: 14.1

Data provenance: ChEMBL document CHEMBL1126276
